- subject_of_test: AtTIR1 (Arabidopsis thaliana, UniProt Q570C0)
- Construct: His10 (N, cleaved yes); eGFP (N, cleaved yes); FLAG (N, cleaved yes); made in house; host or cells: baculovirus; Trichoplusia ni Hi5 cells (virus generated in Sf9)
- Sequence (Q570C0 whole entry, other chains not shown): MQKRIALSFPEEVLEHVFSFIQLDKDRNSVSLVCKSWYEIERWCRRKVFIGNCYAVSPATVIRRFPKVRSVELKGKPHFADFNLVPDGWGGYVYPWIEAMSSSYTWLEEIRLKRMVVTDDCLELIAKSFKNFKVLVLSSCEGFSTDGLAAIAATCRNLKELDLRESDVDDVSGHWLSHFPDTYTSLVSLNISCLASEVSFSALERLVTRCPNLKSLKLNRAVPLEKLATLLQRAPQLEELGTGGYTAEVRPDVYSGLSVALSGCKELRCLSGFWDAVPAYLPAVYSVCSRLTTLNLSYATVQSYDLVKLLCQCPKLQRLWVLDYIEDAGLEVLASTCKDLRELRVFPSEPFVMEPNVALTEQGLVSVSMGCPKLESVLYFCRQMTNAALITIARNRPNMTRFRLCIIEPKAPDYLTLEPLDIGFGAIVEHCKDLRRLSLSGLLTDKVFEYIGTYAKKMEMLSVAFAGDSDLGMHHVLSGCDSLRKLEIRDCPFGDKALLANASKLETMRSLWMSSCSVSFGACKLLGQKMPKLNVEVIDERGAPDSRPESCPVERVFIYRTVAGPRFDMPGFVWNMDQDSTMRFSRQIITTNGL
- Sequence (Q39255 whole entry partner, other chains not shown): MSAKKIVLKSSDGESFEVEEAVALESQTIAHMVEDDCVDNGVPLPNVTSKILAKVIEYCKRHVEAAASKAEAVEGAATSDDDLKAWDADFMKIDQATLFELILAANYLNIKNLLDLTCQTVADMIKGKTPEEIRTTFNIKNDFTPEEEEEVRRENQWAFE
- procedure_details: SPR relative binding (co-receptor complex formation with Aux/IAA7 degron), AtTIR1
- condition_description: 50 μM compound, compared to IAA
observable: Relative binding (in words)

>>> obs_value("Cc1cc(Cl)ccc1OCC(=O)O [MCPA, 2‐methyl‐4‐chlorophenoxyacetic acid]")
"lower binding"
>>> obs_value("CC(Oc1ccc(Cl)cc1Cl)C(=O)O (stereo not drawn) [dichlorprop]")
"lower binding"
>>> obs_value("Cc1cc(Cl)ccc1OC(C)C(=O)O (stereo not drawn) [mecoprop]")
"lower binding"
>>> obs_value("Nc1c(Cl)c(Cl)nc(C(=O)O)c1Cl [Picloram]")
"relatively low binding"
>>> obs_value("Nc1cc(Cl)nc(C(=O)O)c1Cl [Aminopyralid]")
"relatively low binding"
>>> obs_value("Nc1c(Cl)c(F)nc(OCC(=O)O)c1Cl [Fluroxypyr]")
"lower binding than IAA"
>>> obs_value("O=C(O)COc1nc(Cl)c(Cl)cc1Cl [Triclopyr]")
"lower binding than IAA"
>>> obs_value("O=C(O)c1nc(Cl)ccc1Cl [Clopyralid]")
"relatively low binding"

---

- subject_of_test: AtTIR1 (Arabidopsis thaliana, UniProt Q570C0)
- Construct: His10 (N, cleaved yes); eGFP (N, cleaved yes); FLAG (N, cleaved yes); made in house; host or cells: baculovirus; Trichoplusia ni Hi5 cells (virus generated in Sf9)
- procedure_details: biochemical
- Format: binding
- condition_description: averaged equilibrium dissociation constant, SPR single cycle kinetics; read-out: Ave KD
observable: Kd (µM)

>>> obs_value("Nc1c(Cl)c(F)nc(OCC(=O)O)c1Cl")
18
>>> obs_value("COc1c(Cl)ccc(-c2nc(C(=O)O)c(Cl)c(N)c2F)c1F")
62
>>> obs_value("COc1c(Cl)ccc(-c2cc(N)c(Cl)c(C(=O)O)n2)c1F")
128
